test method notes: yeast display, Sf9 membrane polyspecificity reagent, FACS + sequencing; frameworks hold sequencing errors
measure name: polyreactivity (PSR sort gate)

monomer_sequence=QVQLVESGGGLVQAGGSLRLSCAASGYTFSDNAMGWSRQAPGKERDLVAAITSGVSKYFADSVKGRFTISRDNAKNTVYLQMNSLKPEDTADYYFAKDVAVYADLYQGAPYGYWGQGTQVTVSS readout_value="low polyreactivity"
monomer_sequence=QVQLVESGGGLVQAGGSLRLSCAASGLTSVRYAMGWYRQAPGKERELVARISTGGSTYYADSVKGRFTISRDNAKNTVYLQMNSLKPEDTAVYYCNKGYARRYASGYDYWGQGTQVTVSS readout_value="high polyreactivity"
monomer_sequence=LVQLVESGGGLVQAGGSLRLSCAASGRTFPGYAMGGYSQAPGKERELVASINFRGGGTYADSVKGRFTISRDNAKNTVYLLMNSLKPEDTAVYYCAAEYFWGKRRFGYWGQGTQVTVSS readout_value="high polyreactivity"
monomer_sequence=QVQLEESGGGLVQAGGSLRLSCAASGITFPRYAMGWYRQAPGKERELVAAIRWNGGSTYYADSVKGRFTISRDNAKNTVYLQMNSLKPEDTAVYYCAARKDPSFSSFGYGYWGQGTQVTVSS readout_value="high polyreactivity"
monomer_sequence=QVQLVESGGGLVQAGGSLRLSCAASGSTFDTNAMGWYRQPPGKERELVASISSAGSTNYADSVKGRFTISRDNAKNTVYLQMNSLKPEDTAVYYCAKYYGQFYPTTLGYWGQGTQVTVSS readout_value="low polyreactivity"

====

test method notes: yeast display, Sf9 membrane polyspecificity reagent, FACS + sequencing; frameworks hold sequencing errors
measure name: polyreactivity (PSR sort gate)

monomer_sequence=QVQIVESGGGLVQAGGSLRLSCAASGFIFDFYTMGWYRQAPGKERELVAAITWSGDSTYYADSVKGRFTISRDNAKNTVYLQMNSLKPEDTGVYYCAADWWGVWYFDYDYWGQGTQVTVSS readout_value="low polyreactivity"
monomer_sequence=QVQLVESGGGLVQAGGSLRLSCAASGRTFYINAMGWYRQAPGKERELVAGITRGGSTNYADSVKGRFTISRDNAKNTVYLQMNSLKPEDTAVYYCNAARAERWGRGSYPEFDYWGQGTQVTVSS readout_value="high polyreactivity"
monomer_sequence=QVQLVESGGGLVQAGGSLRLSCAASGRTSSYTMGWYRQAPGKERELVAAITRRGVSTYYADSLKGRFTISRDNAKNTVYFQMNSLKAEDTAVYYCAVGPRASFGYGYWGQGTQVTVSS readout_value="high polyreactivity"
monomer_sequence=QVQLVESGAGLVQAGGSLLLSSAPSASTFVSYAMGWYRQAPGKERELVAAISSGGGSTYYADSVKGRFTISRDNAKNTVYLQMNILKPEDTAVYYCAARGYAYRAQYGYWGQGTQVTVSS readout_value="high polyreactivity"
monomer_sequence=QVQLVESGGGLVQAGGSLRLSCAASGRTIRWNAMGWYRQAPGKERELVAAITSRGGSTYYADSVKGRFTISRDNAKNTVYLQMNSLKPEDTAVYYCAKQPKPPPVTGYDYWGQGTQVTVSS readout_value="high polyreactivity"
monomer_sequence=QVQLVESGGGLVQAGGSLRLSCAASGRIFFPNAMGWYRQAPGKERELVAAITSGSSTYYADSVKGRFTISRDNAKNTVYLQMNSLKPEDTAVYYCAARGRRGEAYRSVYYWGQGTQVTVSS readout_value="high polyreactivity"
monomer_sequence=QVQLVESGGGLVQAGGSLRLSCAASGFIFSSYAMGWYRQAPGKERELVAAITSGGSTNYADSVKGRFTISRDNAKNTVYLQMNSLKPEDTAVYYCATVPGRSWFFHWWSTGGDDEYWGQGTQVTVSS readout_value="low polyreactivity"
monomer_sequence=QVQLVESGGGLDQAGGSLRLSCAASGSIFVIYAMGWYRQAPGKERELVAAIRFSTGSTYYADSVKGRFTISRDNAKNTVYLQMNSLKPEDTAVYYCAARTFKYGSYAYEYWGQGTQVTVSS readout_value="high polyreactivity"
monomer_sequence=QVQLVESGGGLVQAGGSLRLSCASSGFAYSYYAMGWYRQAPGKEREFVASIDWSGGSTYYADSVKGRITISRDNAMNTVYLQMNSLKPEATAVYYCAAELDYFPGYDSWGQGTQVTVSS readout_value="low polyreactivity"
monomer_sequence=QVQLVESGGGLVQAGGSLRLSCAASGITFAYYAMGRSRQAPGKERELVAAIRWSGGDTYYADSVKGRFTISRDNAKNTVYLQMNSLKPEDTAVYYCAADTTWGYDYWGQGTQVTVSS readout_value="low polyreactivity"
monomer_sequence=QVQLVESGGGLVQAGGSLRLSCAASGRTFNGYAMGWYRQAPGKERELVAAISSSGGSTYYADSVKGRFTISRDNAKNTVYLQMNSLKPEDTAVYYCAARRANGFNYWGQGTQVTVSS readout_value="high polyreactivity"

These measurements were taken from the nanobody polyreactivity screen of Harvey et al. (2022).
